Molecular target: T1, P2bHq
T1 chain: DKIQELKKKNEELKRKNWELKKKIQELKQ
Test: two-hybrid library CCNG1;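 also: natural log of median RNA to DNA barcode read ratio; higher means stronger binding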
measuredAttribute: interaction score

DKIQELKKKNEELKRKNWELKKKIQELKQ [P2bHq]: 0.693

a. DEIQELEKENEELERENWELEKEIQELEQ [P1bHq]
b. DENQELEKEIEELEREIWELEKKNQELKQ [P11bHq]
c. DKNAQLEQEIAELKQENAELKWEIAQLKQ [4H3162-bA]
d. DKNQELKKKIEELKRKIWELKKENQELEQ [P12bHq]
Q. Give the ascending ranking of the items by reported interaction score. When ranking, write the labels in the order the request describes.
A. c, d, b, a
